# Kd per entry
experimental-target: cIAP-1 BIR-3 (Homo sapiens, UniProt Q13490)
Sequence (Q13490 266-352 limits assumed): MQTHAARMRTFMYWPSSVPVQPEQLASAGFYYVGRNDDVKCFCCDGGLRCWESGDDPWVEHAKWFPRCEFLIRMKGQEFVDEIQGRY
test-details: Fluorescence polarization binding affinity to cIAP-1 BIR-3 (competition with AbuRPF-K(5-Fam)-NH2)
condition-set: 5 nM labeled peptide, 40 nM BIR3, 15 min at RT, pH 7.5; reported as ranges; read-out: KD (c-IAP-1 BIR3)
Procedure: The binding affinities of the compounds are reported as a KD value (μM). […] Following incubation, the polarization values (mP) were measured on a Victor2V (available from PerkinElmer Life Sciences) using a 485 nm excitation filter and a 520 nm emission filter. […]

smi: C[C@H](N)C(=O)N[C@H](C(=O)N1CC[C@H]2NC[C@H](c3cn(Cc4ccccc4)c4cc(F)ccc34)[C@H]21)C1CCCCC1
experimental-target: cIAP-1 BIR-3 (Homo sapiens, UniProt Q13490)
Kd: < 100 nM
//
smi: CN[C@@H](C)C(=O)N[C@H](C(=O)N1CC[C@@H]2[C@H]1[C@@H](c1c[nH]c3cc(F)ccc13)CN2CC(=O)O)C1CCCCC1
experimental-target: cIAP-1 BIR-3 (Homo sapiens, UniProt Q13490)
Kd: < 100 nM

We now examine a further compound.
In: Indicate the recorded Kd value for this compound: CN[C@@H](C)C(=O)N[C@H](C(=O)N1CC[C@@H]2[C@H]1[C@@H](c1c[nH]c3ccccc13)CN2C1CCCCC1)[C@@H](C)OC
Out: 100 to 1000 nM

====

experimental-target: XIAP BIR-3 (Homo sapiens)
Construct: 40 nM of the respective IAP BIR3
test-details: Fluorescence polarization binding affinity to XIAP BIR-3 (competition with AbuRPF-K(5-Fam)-NH2)
condition-set: 5 nM labeled peptide, 40 nM BIR3, 15 min at RT, pH 7.5; reported as ranges
recorded-metric: Kd

Previously resolved entries follow.
smi: CN[C@@H](C)C(=O)N[C@H](C(=O)N1C[C@@H](O)[C@H]2NC[C@@H](c3c[nH]c4cc(F)ccc34)[C@H]21)C1CCCCC1
Kd: > 10 µM

smi: CN[C@@H](C)C(=O)N[C@H](C(=O)N1CC[C@@H]2[C@H]1[C@H](c1c[nH]c3cc(F)ccc13)CN2S(C)(=O)=O)[C@@H](C)OC
Kd: > 10 µM

smi: CN[C@@H](C)C(=O)N[C@@H](CO)C(=O)N1CC[C@@H]2[C@H]1[C@@H](c1c[nH]c3ccc(F)cc13)CN2C(C)=O
Kd: < 0.1 µM

smi: CN[C@@H](C)C(=O)N[C@H](C(=O)N1CC[C@@H]2[C@H]1[C@@H](c1c[nH]c3cc(F)ccc13)CN2C(C)C)C1CCCCC1
Kd: 1 to 10 µM

smi: CC[C@H](NC(=O)[C@H](C)NC)C(=O)N1CC[C@@H]2[C@H]1[C@@H](c1c[nH]c3cc(F)ccc13)CN2c1ncccn1
Kd: 0.1 to 1 µM

In: Indicate the recorded Kd value for this molecule: CN[C@@H](C)C(=O)N[C@H](C(=O)N1CC[C@@H]2[C@H]1[C@@H](c1c[nH]c3cc(F)ccc13)CN2Cc1ccccn1)C1CCCCC1
Out: < 0.1 µM

In: Indicate the recorded Kd value for this molecule: CN[C@@H](C)C(=O)N[C@H](C(=O)N1CC[C@@H]2[C@H]1[C@@H](c1c[nH]c3ccc(F)cc13)CN2C(C)=O)[C@@H](C)OC
Out: < 0.1 µM

In: Indicate the recorded Kd value for this molecule: CN[C@@H](C)C(=O)N[C@H](C(=O)N1CC[C@@H]2[C@H]1[C@@H](c1c[nH]c3cc(F)ccc13)CN2C1CCCC1)C(C)(C)C
Out: < 0.1 µM

In: Indicate the recorded Kd value for this molecule: CN[C@@H](C)C(=O)N[C@H](C(=O)N1CC[C@@H]2[C@H]1[C@@H](c1c[nH]c3cc(F)ccc13)CN2c1ncccn1)[C@@H](C)O
Out: < 0.1 µM

In: Indicate the recorded Kd value for this molecule: CN[C@@H](C)C(=O)N[C@H](C(=O)N1CC[C@@H]2[C@H]1[C@H](c1c[nH]c3cc(F)ccc13)CN2S(C)(=O)=O)C1CCCCC1
Out: 1 to 10 µM

In: Indicate the recorded Kd value for this molecule: CN[C@@H](C)C(=O)N[C@H](C(=O)N1CC[C@@H]2[C@H]1[C@@H](c1c[nH]c3cc(F)ccc13)CN2C(=O)OC)C1CCCCC1
Out: < 0.1 µM

In: Indicate the recorded Kd value for this molecule: CN[C@@H](C)C(=O)N[C@H](C(=O)N1CC[C@H]2NC[C@H](c3cn(Cc4ccccc4)c4cc(F)ccc34)[C@H]21)C1CCCCC1
Out: < 0.1 µM

====

experimental-target: XIAP BIR-3 (Homo sapiens, UniProt P98170)
Construct: 40 nM of the respective IAP BIR3
Sequence (P98170 241-356 limits assumed): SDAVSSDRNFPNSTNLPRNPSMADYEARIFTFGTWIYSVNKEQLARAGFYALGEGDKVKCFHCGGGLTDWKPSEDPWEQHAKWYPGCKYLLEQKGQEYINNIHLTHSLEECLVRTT
test-details: Fluorescence polarization binding affinity to XIAP BIR-3 (competition with AbuRPF-K(5-Fam)-NH2)
condition-set: 5 nM labeled peptide, 40 nM BIR3, 15 min at RT, pH 7.5; reported as ranges
recorded-metric: Kd

Previously resolved entries follow.
smi: CN[C@@H](C)C(=O)N[C@H](C(=O)N1CC[C@@H]2[C@H]1[C@H](c1c[nH]c3cc(F)ccc13)CN2C1CCCC1)C(C)(C)C
experimental-target: XIAP BIR-3 (Homo sapiens, UniProt P98170)
Kd: 1000 to 10000 nM

smi: CN[C@@H](C)C(=O)N[C@H](C(=O)N1CC[C@@H]2[C@H]1[C@@H](c1c[nH]c3ccc(F)cc13)CN2C(C)=O)C(C)C
experimental-target: XIAP BIR-3 (Homo sapiens, UniProt P98170)
Kd: < 100 nM

smi: CN[C@@H](C)C(=O)N[C@H](C(=O)N1CC[C@@H]2[C@H]1[C@@H](c1c[nH]c3cc(F)ccc13)CN2C1CCN(C)CC1)C1CCCCC1
experimental-target: XIAP BIR-3 (Homo sapiens, UniProt P98170)
Kd: 100 to 1000 nM

In: Indicate the recorded Kd value for this molecule: CN[C@@H](C)C(=O)N[C@@H](CO)C(=O)N1CC[C@H]2NC[C@H](c3c[nH]c4cc(F)ccc34)[C@H]21
Out: < 100 nM

In: Indicate the recorded Kd value for this molecule: CCN1C[C@H](c2c[nH]c3cc(F)ccc23)[C@@H]2[C@H]1CCN2C(=O)[C@@H](NC(=O)[C@H](C)NC)C1CCCCC1
Out: 100 to 1000 nM

In: Indicate the recorded Kd value for this molecule: CN[C@@H](C)C(=O)N[C@H](C(=O)N1CC[C@@H]2[C@H]1[C@@H](c1c[nH]c3cc(F)ccc13)CN2C1CCCC1)[C@@H](C)O
Out: 100 to 1000 nM

In: Indicate the recorded Kd value for this molecule: CN[C@@H](C)C(=O)N[C@H](C(=O)N1CC[C@@H]2[C@H]1[C@@H](c1c[nH]c3cc(F)ccc13)CN2Cc1ncc(C)s1)C1CCCCC1
Out: < 100 nM

====

Tested on: SK-OV-3 cells
test-details: Growth inhibition of ovarian cancer cell line SK-OV-3 (MTT assay, cell survival)
Assay type: cell-based
condition-set: Homo sapiens, drug concentration that results in 50% cell survival, 72 hrs incubation, reported as ranges
# CC50 per entry

In: Indicate the recorded CC50 value for this compound: CN[C@@H](C)C(=O)N[C@H](C(=O)N1CC[C@@H]2[C@H]1[C@@H](c1c[nH]c3cc(F)ccc13)CN2C(=O)Cc1ccccc1)C1CCCCC1 [Example 39]
Out: < 0.1 µM

In: Indicate the recorded CC50 value for this compound: CN[C@@H](C)C(=O)N[C@H](C(=O)N1CC[C@@H]2[C@H]1[C@@H](c1c[nH]c3cc(F)ccc13)CN2C(C)C)C1CCCCC1 [Example 19]
Out: 0.1 to 1 µM

In: Indicate the recorded CC50 value for this compound: CC[C@H](NC(=O)[C@H](C)NC)C(=O)N1CC[C@@H]2[C@H]1[C@@H](c1c[nH]c3cc(F)ccc13)CN2C(C)=O [Example 60]
Out: < 0.1 µM

In: Indicate the recorded CC50 value for this compound: CN[C@@H](C)C(=O)N[C@H](C(=O)N1CC[C@@H]2[C@H]1[C@@H](c1c[nH]c3cc(F)ccc13)CN2S(C)(=O)=O)C(C)O (stereo partly drawn) [Example 56]
Out: < 0.1 µM

In: Indicate the recorded CC50 value for this compound: CN[C@@H](C)C(=O)N[C@@H](COC)C(=O)N1CC[C@@H]2[C@H]1[C@H](c1c[nH]c3cc(F)ccc13)CN2C1CCCC1 [Example 12]
Out: > 10 µM

In: Indicate the recorded CC50 value for this compound: CN[C@@H](C)C(=O)N[C@H](C(=O)N1CC[C@@H]2[C@H]1[C@@H](c1c[nH]c3cc(F)ccc13)CN2c1ncccn1)C(C)C [Example 77]
Out: < 0.1 µM

In: Indicate the recorded CC50 value for this compound: CN[C@@H](C)C(=O)N[C@H](C(=O)N1CC[C@@H]2[C@H]1[C@@H](c1c[nH]c3ccc(F)cc13)CN2C(C)=O)C1CCCCC1 [Example 70]
Out: < 0.1 µM

In: Indicate the recorded CC50 value for this compound: CN[C@@H](C)C(=O)N[C@H](C(=O)N1CC[C@@H]2[C@H]1[C@@H](c1c[nH]c3ccc(F)cc13)CN2C(C)=O)[C@@H](C)O [Example 74]
Out: 0.1 to 1 µM

In: Indicate the recorded CC50 value for this compound: CN[C@@H](C)C(=O)N[C@H](C(=O)N1CC[C@H]2NC[C@H](c3c[nH]c4cc(F)ccc34)[C@H]21)[C@@H](C)OC [Example 35]
Out: < 0.1 µM

In: Indicate the recorded CC50 value for this compound: CN[C@@H](C)C(=O)N[C@H](C(=O)N1CC[C@@H]2[C@H]1[C@@H](c1c[nH]c3cc(F)ccc13)CN2C(C)=O)C1CCCCC1 [Example 59]
Out: < 0.1 µM

In: Indicate the recorded CC50 value for this compound: CN[C@@H](C)C(=O)N[C@H](C(=O)N1CC[C@@H]2[C@H]1[C@@H](c1c[nH]c3cc(F)ccc13)CN2C1CCCC1)[C@@H](C)OC [Example 16]
Out: 0.1 to 1 µM

In: Indicate the recorded CC50 value for this compound: CC[C@H](NC(=O)[C@H](C)NC)C(=O)N1CC[C@@H]2[C@H]1[C@@H](c1c[nH]c3cc(F)ccc13)CN2S(C)(=O)=O [Example 46]
Out: < 0.1 µM
